The values you see were collected from ChEMBL document CHEMBL1127512.

assay: Inhibitory concentration was tested on electrically stimulated guinea pig ileal longitudinal muscle using Morphine as mu opioid receptor agonist at 100 nM of the compound; assay type: functional
# label = true (1) if Ratio < 2 else false (0)

[
  {
    "STRUCTURE STRING": "CCCCN1CC[C@]23c4c5ccc(O)c4O[C@H]2c2[nH]c4c(c2C[C@@]3(O)[C@H]1C5)C[C@@]1(O)[C@H]2Cc3ccc(O)c5c3[C@@]1(CCN2CC1CC1)[C@H]4O5",
    "CLASS NAME": "true (1)"
  }
]

Ask | Could you please tell me whether Ratio recorded for `N=C(N)NCCN1CC[C@]23c4c5ccc(O)c4O[C@H]2c2[nH]c4c(c2C[C@@]3(O)[C@H]1C5)C[C@@]1(O)[C@H]2Cc3ccc(O)c5c3C1(CCN2CC1CC1)[C@H]4O5` is less than 2?
Reply | true (1)

Ask | Could you please tell me whether Ratio recorded for `NCCN1CC[C@]23c4c5ccc(O)c4O[C@H]2c2[nH]c4c(c2C[C@@]3(O)[C@H]1C5)C[C@@]1(O)[C@H]2Cc3ccc(O)c5c3[C@@]1(CCN2CC1CC1)[C@H]4O5` is less than 2?
Reply | true (1)

Ask | Could you please tell me whether Ratio recorded for `O=C(NCCN1CC[C@]23c4c5ccc(O)c4O[C@H]2c2[nH]c4c(c2C[C@@]3(O)C1=C5)C[C@@]1(O)[C@H]2Cc3ccc(O)c5c3[C@@]1(CCN2CC1CC1)[C@H]4O5)OCc1ccccc1` is less than 2?
Reply | false (0)

* * *

Each item that follows carries a reported Ratio.
target: Opioid receptors; mu & kappa (Homo sapiens) (UniProt P41145+P35372); test: Selectivity ratio of mu opioid receptor to that of kappa opioid receptor; format: protein assay
Sequence (P35372 whole entry, looked up): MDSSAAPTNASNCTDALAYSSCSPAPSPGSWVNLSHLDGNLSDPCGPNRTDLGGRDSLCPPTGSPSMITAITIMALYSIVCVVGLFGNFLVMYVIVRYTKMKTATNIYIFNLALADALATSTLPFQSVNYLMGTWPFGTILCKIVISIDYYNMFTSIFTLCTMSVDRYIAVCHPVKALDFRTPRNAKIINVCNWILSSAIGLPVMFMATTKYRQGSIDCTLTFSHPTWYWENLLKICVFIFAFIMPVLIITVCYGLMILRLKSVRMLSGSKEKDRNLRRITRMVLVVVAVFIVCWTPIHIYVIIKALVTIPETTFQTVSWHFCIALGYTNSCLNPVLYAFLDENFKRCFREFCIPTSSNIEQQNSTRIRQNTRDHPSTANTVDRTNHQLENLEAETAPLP
Sequence (P41145 whole entry, looked up): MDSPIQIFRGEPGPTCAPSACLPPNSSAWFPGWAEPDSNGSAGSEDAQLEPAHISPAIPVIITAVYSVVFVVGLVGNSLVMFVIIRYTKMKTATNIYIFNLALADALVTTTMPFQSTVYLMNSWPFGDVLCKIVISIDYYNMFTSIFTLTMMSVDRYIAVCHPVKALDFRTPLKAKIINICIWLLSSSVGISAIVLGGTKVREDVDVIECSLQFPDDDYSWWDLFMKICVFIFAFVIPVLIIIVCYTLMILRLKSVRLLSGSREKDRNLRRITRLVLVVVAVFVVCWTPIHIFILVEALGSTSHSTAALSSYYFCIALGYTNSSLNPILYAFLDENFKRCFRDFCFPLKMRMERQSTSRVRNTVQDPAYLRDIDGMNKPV

Answered cases to consult:
[
  {
    "STRUCTURE STRING": "N=C(N)NCCN1CC[C@]23c4c5ccc(O)c4O[C@H]2c2[nH]c4c(c2C[C@@]3(O)[C@H]1C5)C[C@@]1(O)[C@H]2Cc3ccc(O)c5c3C1(CCN2CC1CC1)[C@H]4O5",
    "STUDY TARGET": "Opioid receptors; mu & kappa (Homo sapiens) (UniProt P41145+P35372)",
    "Ratio": 85
  },
  {
    "STRUCTURE STRING": "CCCCN1CC[C@]23c4c5ccc(O)c4O[C@H]2c2[nH]c4c(c2C[C@@]3(O)[C@H]1C5)C[C@@]1(O)[C@H]2Cc3ccc(O)c5c3[C@@]1(CCN2CC1CC1)[C@H]4O5",
    "STUDY TARGET": "Opioid receptors; mu & kappa (Homo sapiens) (UniProt P41145+P35372)",
    "Ratio": 1820
  },
  {
    "STRUCTURE STRING": "NCCN1CC[C@]23c4c5ccc(O)c4O[C@H]2c2[nH]c4c(c2C[C@@]3(O)[C@H]1C5)C[C@@]1(O)[C@H]2Cc3ccc(O)c5c3[C@@]1(CCN2CC1CC1)[C@H]4O5",
    "STUDY TARGET": "Opioid receptors; mu & kappa (Homo sapiens) (UniProt P41145+P35372)",
    "Ratio": 14
  },
  {
    "STRUCTURE STRING": "O=C(NCCN1CC[C@]23c4c5ccc(O)c4O[C@H]2c2[nH]c4c(c2C[C@@]3(O)C1=C5)C[C@@]1(O)[C@H]2Cc3ccc(O)c5c3[C@@]1(CCN2CC1CC1)[C@H]4O5)OCc1ccccc1",
    "STUDY TARGET": "Opioid receptors; mu & kappa (Homo sapiens) (UniProt P41145+P35372)",
    "Ratio": 194
  }
]

Ask | In one line, give reported Ratio of the entry `NCC(=O)NCC(=O)N1CC[C@]23c4c5ccc(O)c4O[C@H]2c2[nH]c4c(c2C[C@@]3(O)[C@H]1C5)C[C@@]1(O)[C@H]2Cc3ccc(O)c5c3[C@@]1(CCN2CC1CC1)[C@H]4O5` .
Reply | 3
